- assayedSystem: K-Ras G12C (Homo sapiens, UniProt P01116, G12C)
- Construct: This protein contained 188 amino acids in total, including an N-terminal 6-Histidine tag; made in house; host or cells: E. coli BL21
- method: CAF assay (% CAF; method in Example 7, not in this part)
- Assay type: binding
- assayContext: 10 uM, 1 h; Table 3
// % CAF @ 10 uM, 1h lookup, one value per entry
Field: numeric (%). Do not append units.

The examples below pair each entry with its known result.
C=CC(=O)N1C[C@H](C)N(c2nc(=O)n3c4c(c(-c5ccc(F)cc5F)c(Cl)cc24)S(=O)(=O)CC3)C[C@H]1C (atropisomer, axis not shown) [Example 177] ... 93.5
C=CC(=O)N1CCN(c2nc(=O)n3c4c(c(-c5ccc(F)cc5F)c(Cl)cc24)S(=O)(=O)CC3)[C@@H](C)C1 [Example 190] ... 88.2
C=CC(=O)N1CCN(c2nc(=O)n3c4c(c(-c5ccc(F)cc5F)c(CC)cc24)SCC3)[C@@H](C)C1 ... 92.8

Prompt: What measured % CAF @ 10 uM, 1h goes with C=CC(=O)N1CCN(c2nc(=O)n3c4c(c(-c5ccc(F)cc5F)c(Cl)cc24)SCC3)CC12CNC2=O (stereo not drawn) ?
Completion: 62.7

Prompt: Field entry: C=CC(=O)N1CCN(c2nc(=O)n3c4c(c(-c5c(F)cc(F)cc5F)c(Cl)cc24)SC[C@H]3COC)[C@@H](C)C1
Completion: 86.8

Prompt: Cool, now C=CC(=O)N1CC2CCC1CN2c1nc(=O)n2c3c(c(-c4ccc(F)cc4F)c(Cl)cc13)SCC2 (stereo not drawn)
Completion: 28.7

---

- assayedSystem: K-Ras G12C (Homo sapiens, UniProt P01116, G12C)
- Construct: This protein contained 188 amino acids in total, including an N-terminal 6-Histidine tag; made in house; host or cells: E. coli BL21
- method: CAF assay (% CAF; method in Example 7, not in this part)
- Type: binding
- assayContext: 10 uM compound, 1 h incubation
// criterion not met strictly below 60% in % CAF @ 10 uM, 1h; criterion met otherwise

Worked examples, 10 compounds total:
C=CC(=O)N1C[C@H](C)N(c2nc(=O)n3c4c(c(-c5ccc(F)cc5F)c(C(F)(F)F)cc24)SC[C@@H]3COC)C[C@H]1C (atropisomer, axis not shown) [Example 509] ... criterion met
C=CC(=O)N1C[C@H](C)N(c2nc(=O)n3c4c(c(-c5cc(Cl)c(F)cc5F)c(Cl)cc24)SC[C@@H]3CN2C[C@@H]3C[C@H]2CO3)C[C@H]1C ... criterion not met
C=CC(=O)N1C[C@H](C)N(c2nc(=O)n3c4c(c(-c5cc(F)c(F)cc5F)c(Cl)cc24)SC[C@@H]3CN2CCC3(CC2)COC3)C[C@H]1C [Example 460] ... criterion met
C=CC(=O)N1CCN(c2nc(=O)n3c4c(c(-c5ccc(F)cc5F)c(Cl)cc24)SC[C@H]3COC2CN(CC)C2)[C@@H](C)C1 ... criterion not met
C=CC(=O)N1CCN(c2nc(=O)n3c4c(c(-c5cc(F)c(F)cc5F)c(Cl)cc24)SC[C@@H]3CC2CCN(C3COC3)CC2)[C@@H](C)C1 ... criterion met
C=CC(=O)N1C[C@H](C)N(c2nc(=O)n3c4c(c(-c5ccc(F)cc5)c(Cl)cc24)SC[C@@H]3CN2CCn3c(nnc3C(F)(F)F)C2)C[C@H]1C ... criterion met
C=CC(=O)N1CCN(c2nc(=O)n3c4c(c(-c5ccc(F)cc5F)c(C(F)(F)F)cc24)SC[C@@H](O)C3)[C@@H](C)C1 ... criterion met
C=CC(=O)N1CCN(c2nc(=O)n3c4c(c(-c5ccc(F)cc5F)c(C(F)(F)F)cc24)S(=O)(=O)C[C@@H]3COC)[C@@H](C)C1 ... criterion met
C=CC(=O)N1C[C@H](C)N(c2nc(=O)n3c4c(c(-c5cc(Cl)c(F)cc5F)c(C(F)(F)F)cc24)SC[C@@H]3COC)C[C@H]1C (atropisomer, axis not shown) [Example 544] ... criterion not met
C=CC(=O)N1CCN(c2nc(=O)n3c4c(c(-c5c(F)ccc6[nH]ncc56)c(Cl)cc24)SCC3)[C@@H](C)C1 ... criterion not met

Now consider the entry below.
Prompt: Would you say C=CC(=O)N1C[C@H](C)N(c2nc(=O)n3c4c(c(-c5ccc(F)cc5)c(C(F)(F)F)cc24)SC[C@@H]3COCCOC)C[C@H]1C shows % CAF @ 10 uM, 1h at minimum 60%?
Completion: criterion met

Where do these numbers come from? They come from patent US20230107642A1.
